Provenance of the data: ChEMBL document CHEMBL1201862

# Test system: OVCAR-8
# Method summary: NCI tumour cell line growth inhibition, 48 h
Activity calls are given as the source filed them. Cut-off read from the data, not from the text of the source: active = GI50 up to about 1.1 µM and inactive = higher.
Experimental readout: GI50

Known GI50 results, listed for orientation:
{"Molecule": "COC(=O)N/N=C(\\c1nc2ccc(Cl)cc2nc1O)C(O)c1ccc([N+](=O)[O-])cc1 (stereo not drawn)", "Assay result": "> 100 µM (inactive)"}
{"Molecule": "FC(F)(F)C1(Br)C(c2ccccc2)=C1c1ccccc1", "Assay result": "15 µM (inactive)"}
{"Molecule": "Cc1ccc(-c2c(C#N)c(-c3ccc(Cl)cc3)c(C#N)c(=O)n2NS(=O)(=O)c2ccccc2)cc1", "Assay result": "76.4 µM (inactive)"}
{"Molecule": "COc1cccc(C2SC(=N)Nc3c2c(C)nn3C(=O)c2ccccc2O)c1 (stereo not drawn)", "Assay result": "> 2.76 µM (inactive)"}
{"Molecule": "CCOC(=O)/C(C(=O)Nc1cccc(Cl)c1)=C(/N)N1CCCC1", "Assay result": "> 100 µM (inactive)"}

For OVCAR-8, provide GI50 of CCNc1cc2c3c(c1)CCCN3CCC2 please.
21.2 µM (inactive)

Next molecule up: O=Cc1ccc(-c2ccc(-c3ccc(C=O)s3)o2)s1
> 100 µM (inactive)

Please answer likewise for NC1=Nc2ccccc2Sc2nncn21
> 100 µM (inactive)

Now this one: CC(C)OP(=O)(OC(C)C)C1=NN(c2ccc([N+](=O)[O-])cc2)C(P(=O)(OC(C)C)OC(C)C)=NN1c1ccc([N+](=O)[O-])cc1
38.1 µM (inactive)

Same lookup for Cc1cn([C@@H]2C[C@H](CO)[C@@H](O)C2)c(=O)[nH]c1=O , please.
> 100 µM (inactive)

Input CNc1ccc(/C=C2\C=Cc3ccccc32)cc1
64.3 µM (inactive)
